This listing pairs molecules with measured pIC50.
target: γ-secretase (Aβ(1-42) production in SH-SY5Y neuroblastoma cells overexpressing SPA4CT) (Homo sapiens, UniProt P49768); construct: Human SH-SY5Y neuroblastoma cells overexpressing the direct 7-secretase substrate SPA4CT; endogenous in cells; assay: Cell-based γ-secretase assay, Aβ(1-42) inhibition; conditions: overnight incubation, Meso Scale detection of Aβ(42)
pIC50: −log10 of the molar value.

Below are worked cases with known answers.
STRUCTURE_AS_SMILES: CCN(CC)c1ccc(Nc2nc(N3CCN(c4ccc(OC)cc4)C(C)(C)C3)ncc2Cl)c(C)c1
pIC50: 6.00 to 6.30
//
STRUCTURE_AS_SMILES: CCN(CC)c1ccc(Nc2ccnc(N3CCN(c4ccc(OC)nc4)CC3)n2)c(C)c1
pIC50: 5.52 to 6.00
//
STRUCTURE_AS_SMILES: COc1ccc(N2CCN(c3nc(Nc4cc(C(C)(C)C)ccc4C)cc(C(=O)N(C)CCN(C)C)n3)CC2(C)C)cc1
pIC50: > 6.30
//
STRUCTURE_AS_SMILES: COc1ccc(N2CCN(c3ncc(F)c(Nc4cc(C(C)(C)C)ccc4C)n3)CC2(C)C)cc1F
pIC50: 6.00 to 6.30
//
STRUCTURE_AS_SMILES: COc1ccc(N2CCN(c3nccc(Nc4cc(OC)ccc4C)n3)CC2(C)C)cc1
pIC50: 5.52 to 6.00
//
STRUCTURE_AS_SMILES: CCN(CC)c1ccc(Nc2nc(N3CCN(c4ccc(OC)cc4)C(C)(C)C3)ncc2C)c(C)c1
pIC50: > 6.30

The molecule CCN(CC)c1ccc(Nc2cc(C(=O)N(C)C)nc(N3CCN(c4ccc(OC)cc4)C(C)(C)C3)n2)c(C)c1 showed pIC50 equal to > 6.30

// pIC50 lookup, molecule = CCN(CC)c1ccc(Nc2cc(C(=O)OC)nc(N3CCN(c4ccc(OC)cc4)C(C)(C)C3)n2)c(C)c1 , result: > 6.30

So for COc1ccc(N2CCN(c3nccc(Nc4cc(C(C)(C)C)nn4C)n3)CC2(C)C)cc1 , the logged pIC50 turned out to be > 6.30

// field: pIC50; key: CCN(CC)c1ccc(Nc2nc(N3CCN(c4ccc(OC)cc4)C(C)(C)C3)ncc2Br)c(C)c1 ; value = 6.00 to 6.30

Lab book: pIC50 of CCN(CC)c1cc(C)c(Nc2ccnc(N3CCN(c4ccc(OC)cc4)C(C)(C)C3)n2)cc1C noted as > 6.30

Origin of measurements: patent US20100204230A1
